measurementDescription: compound effects on lung adenocarcinoma cell viability – A549, calcein-AM fluorescence, 48 h, basal, profiling panel (AID 1162); note: test concentration not given here
measurementContext: higher = more signal
Classify by measured z-score: Y if it is equal to or exceeds -0.01, N if it is smaller.

molecule=COC(=O)c1c(CC[C@@H](CO)NC(=O)N2CCC[C@H]2Cn2cc(C3(O)CCCCC3)nn2)oc(C(C)=O)c1C(=O)OC classname=N
molecule=CCCC[C@@H](O)C1=C(COC)C[C@H]2C(=O)N(C)C(=O)[C@H]2[C@H]1CO classname=Y
molecule=COCCCNC(=O)[C@@]1(Sc2ccc(C)cc2)CC(=O)N(C2Cc3ccccc3C2)[C@@H]1c1ccc(CO)cc1 classname=Y
molecule=COc1cccc(C)c1NC(=O)O[C@H]1[C@H](OC(=O)Nc2ccccc2-c2ccccc2)[C@H](OC(=O)Nc2ccccc2-c2ccccc2)[C@@H](OC)O[C@@H]1CO classname=N
molecule="COc1cc(NN2C(C(O)c3cc(OC)c(OC)c(OC)c3)C=CC3C(=O)N(C)C(=O)C32)cc(OC)c1OC (configuration not stated)" classname=N
molecule=C[N+](C)(C)CCCC[C@@H]1NC(=O)[C@@H]2C[C@H](C(=O)NCCCCCCN)[C@H](c3cccc(OCCO)c3)N2C1=O classname=N
molecule=CC1=C2[C@@H](CCc3ccccc3)OB(O)C[C@@H]2[C@@H]2C(=O)N(Cc3ccccc3)C(=O)[C@@H]2C1 classname=N
molecule=COc1ccc([Si](C)(C)[C@@H]2[C@@H](CC(=O)N(CCO)Cc3ccccc3)O[C@]3(C(=O)N(Cc4cccc(N5CCCCC5=O)c4)c4ccccc43)[C@H]2C)cc1 classname=N
molecule="[N-]=[N+]=NCc1ccccc1[C@H]1OC(c2ccc(OCCCO)cc2)=N[C@@]1(Cc1ccccc1N=[N+]=[N-])C(=O)NCC(O)CO (some centres not stated)" classname=N
molecule=COC(=O)[C@@]1(Cc2ccc(OC)cc2)[C@H]2c3cc(C(=O)N4CCCC4)n(CCc4c[nH]c5ccc(O)cc45)c3C[C@H]2CN1C(=O)c1ccccc1 classname=Y
molecule=CCOC(=O)C[C@H]1[C@H](OC(=O)c2cc3ccccc3oc2=O)[C@@H](NC(=O)c2ccc3ccccc3n2)c2cc(OCCCO)ccc2N1C(=O)Cc1ccc(OC)cc1 classname=Y
molecule=COc1ccc([Si](C)(C)[C@@H]2[C@@H](CCO)O[C@]3(C(=O)N(Cc4ccccc4)c4ccc(N5C(=O)c6cccc7cccc5c67)cc43)[C@H]2C)cc1 classname=N
molecule=CC1=C2[C@@H](CCc3ccccc3)OB(O)C[C@@H]2[C@@H]2C(=O)N(C)C(=O)[C@@H]2C1 classname=N
molecule="CCCC1(C(=O)OC)C=C2C(=C(C)C(=O)C2C)CN1 (configuration not stated)" classname=N
molecule=CC(C)=C1C(=O)C(c2ccccc2)=C2CN3C(=O)N(CCc4ccccc4)C(=O)[C@]3(Cc3ccc(C(F)(F)F)cc3)[C@H]21 classname=Y
molecule=O[C@@H](Cc1ccccc1)[C@@H](/C=C/C1CC1)N(CC#Cc1ccccc1)Cc1ccccc1Br classname=N
molecule=COc1ccc([Si](C)(C)[C@H]2[C@H](CC(=O)N3CCC[C@H]3CO)O[C@@]3(C(=O)N(Cc4ccc(N5CCOC5=O)cc4)c4ccccc43)[C@@H]2C)cc1 classname=N

###

Test system: PRMT1 (protein arginine N-methyltransferase 1)
measurementDescription: small molecules binding arginine methyltransferase PRMT1 – biochemical, small-molecule microarray, 635 nm fluorescence, primary screen (AID 1088);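 note: binding of Prmt1 protein to compounds spotted on small-molecule microarray slides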
measurementContext: higher = more signal
Classification field: Y = composite z-score at or over 0.3; N = composite z-score under 0.3.

molecule="CC1CC/C=C\\[C@H]2OC34C=CCN(C(C)(C)C)C(=O)[C@H]3N(CCCCCO)C(=O)[C@@H]4C2C(=O)O1 (some centres undefined)" classname=N
molecule=CCCC#C[Si](O[C@H](CC)c1cn([C@H](C)c2ccccc2)nn1)(C(C)C)C(C)C classname=Y
molecule="C=CCC(OC(C)=O)[C@@H]1[C@@H](N(Cc2cccc3ccccc23)C(=O)Cc2ccc(OC)cc2)c2cc(OCCCO)ccc2N1C(=O)c1ccc(-c2ccccc2)cc1 (some centres undefined)" classname=Y
molecule=C=C(COC)/C(=C/C[C@H](OC(=O)c1ccncc1)c1ccc(CO)o1)c1cnc2ccccc2c1 classname=Y
molecule="CC(C)C(O)C1C=CC2C(=O)N(c3ccccc3)C(=O)C2N1Nc1ccccc1 (centres undefined)" classname=Y
molecule=CCC#CCN(Cc1ccccc1Br)[C@H](/C=C/C1CC1)[C@@H](O)Cc1ccccc1 classname=N
molecule=CO[C@H]1O[C@H](CO)[C@@H](OC(=O)Nc2ccc3c(c2)OCO3)[C@H](OC(=O)Nc2ccc3c(c2)OCO3)[C@@H]1OC(=O)Nc1ccc2c(c1)OCO2 classname=Y
molecule=COc1ccc([Si](C)(C)[C@H]2[C@H](CC(=O)N(CCO)Cc3ccccc3)O[C@@]3(C(=O)N(C)c4c(Br)cc(C)cc43)[C@@H]2C)cc1 classname=Y
molecule=CCCCCCc1nc(Cc2cc(OC)c(OC)c(OC)c2)cc2c1[Si](C(C)C)(C(C)C)OC2 classname=N
